Target: cellular GLS activity in PC3 cells (Homo sapiens (Human))
Sequence (O94925 73-669): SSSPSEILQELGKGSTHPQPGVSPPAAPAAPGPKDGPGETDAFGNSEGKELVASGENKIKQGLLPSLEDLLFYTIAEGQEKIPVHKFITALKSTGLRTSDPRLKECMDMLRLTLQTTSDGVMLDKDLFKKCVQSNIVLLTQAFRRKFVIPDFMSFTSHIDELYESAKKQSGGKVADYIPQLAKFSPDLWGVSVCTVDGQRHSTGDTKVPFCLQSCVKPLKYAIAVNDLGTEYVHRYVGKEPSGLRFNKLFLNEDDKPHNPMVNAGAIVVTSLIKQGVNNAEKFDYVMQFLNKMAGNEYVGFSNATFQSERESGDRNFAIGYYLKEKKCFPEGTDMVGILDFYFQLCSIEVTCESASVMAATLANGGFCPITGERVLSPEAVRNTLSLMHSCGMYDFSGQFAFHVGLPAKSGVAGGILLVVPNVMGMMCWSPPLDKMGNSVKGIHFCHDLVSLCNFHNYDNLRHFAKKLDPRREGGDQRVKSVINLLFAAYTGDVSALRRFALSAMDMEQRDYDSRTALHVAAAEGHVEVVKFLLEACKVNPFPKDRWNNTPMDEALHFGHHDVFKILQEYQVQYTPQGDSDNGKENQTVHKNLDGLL
Experiment: GLS Cell Potency Assay (PC3 coupled assay measuring cellular glutamate depletion)
Conditions: PC3 cells, 6 h incubation, glutamate depletion; read-out: Assay b) GLS cell MOA Mean IC50
READOUT TYPE: pIC50
Please treat pIC50 as minus the base-10 logarithm of the molar concentration.

What pIC50 appears in the records for this molecule with cellular GLS activity in PC3 cells (Homo sapiens (Human))? `CCO[C@@H](C(=O)Nc1nnc(N[C@@H]2CCN(c3cccnn3)C2)s1)c1cccc(N2CC(OC)C2)c1`
7.97

Which measured pIC50 belongs to CCOC(C(=O)Nc1nnc(N[C@@H]2CCN(c3cccnn3)C2)s1)c1cccc(N2CC(F)(F)C2)c1 (single isomer, unassigned) [Example 29] , tested on cellular GLS activity in PC3 cells (Homo sapiens (Human))?
9.39

Find pIC50 (cellular GLS activity in PC3 cells (Homo sapiens (Human))) for the entry COC(C(=O)Nc1nnc(N[C@@H]2CCN(c3ccc(C)nn3)C2)s1)c1cccc(N2CC(F)(F)C2)c1 (stereo partly drawn)
9.39

Query the reported pIC50 for cellular GLS activity in PC3 cells (Homo sapiens (Human)); item: CO[C@H](C(=O)Nc1nnc(N[C@@H]2CCN(c3cccnn3)C2)s1)c1cccc(N2CC(F)C2)c1 (single isomer, unassigned) [Example 1(b)]
7.74

# value lookup — system cellular GLS activity in PC3 cells (Homo sapiens (Human)), readout pIC50, item COc1cc(OC)cc(C(OC)C(=O)Nc2nnc(N[C@@H]3CCN(c4ccc(F)nn4)C3)s2)c1 (stereo partly drawn)
9.48

Any idea what pIC50 came out for CCOC(C(=O)Nc1nnc(N[C@@H]2CCN(c3cccnn3)C2)s1)c1cccc(N2CC(F)C2)c1 (single isomer, unassigned) on cellular GLS activity in PC3 cells (Homo sapiens (Human))?
9.24

----------
System: NCI-H1703 cells
Experiment: GLS Cell Proliferation Assay (NCI-H1703 cell proliferation)
Format: cell-based
Settings: Homo sapiens, NCI-H1703, 120 h, NCI-H1703 cells, 5 days; read-out: Assay c) Prolif Mean IC50
pIC50: −log10 of the molar value.
Everything with pIC50 lower than 8 is Not satisfied; everything else, including exactly 8, is Satisfied.

In [3]: df
Out[3]:
                                   compound  label_class
0  COc1cc(OC)cc(C(OC)C(=O)Nc2nnc(N[C@@H]3CCN(c4ccc(F)nn4)C3)s2)c1 (stereo partly drawn) [Example 26]    Satisfied

State whether the measured pIC50 reaches 8, counting equality as reaching it, for COc1cc(OC)cc([C@H](OC)C(=O)Nc2nnc(N[C@@H]3CCN(c4nccnn4)C3)s2)c1 (single isomer, unassigned) [Example 16(a)]
Satisfied

----------
Biological target: GLS1 (Homo sapiens (Human), UniProt O94925)
Sequence (O94925 63-669): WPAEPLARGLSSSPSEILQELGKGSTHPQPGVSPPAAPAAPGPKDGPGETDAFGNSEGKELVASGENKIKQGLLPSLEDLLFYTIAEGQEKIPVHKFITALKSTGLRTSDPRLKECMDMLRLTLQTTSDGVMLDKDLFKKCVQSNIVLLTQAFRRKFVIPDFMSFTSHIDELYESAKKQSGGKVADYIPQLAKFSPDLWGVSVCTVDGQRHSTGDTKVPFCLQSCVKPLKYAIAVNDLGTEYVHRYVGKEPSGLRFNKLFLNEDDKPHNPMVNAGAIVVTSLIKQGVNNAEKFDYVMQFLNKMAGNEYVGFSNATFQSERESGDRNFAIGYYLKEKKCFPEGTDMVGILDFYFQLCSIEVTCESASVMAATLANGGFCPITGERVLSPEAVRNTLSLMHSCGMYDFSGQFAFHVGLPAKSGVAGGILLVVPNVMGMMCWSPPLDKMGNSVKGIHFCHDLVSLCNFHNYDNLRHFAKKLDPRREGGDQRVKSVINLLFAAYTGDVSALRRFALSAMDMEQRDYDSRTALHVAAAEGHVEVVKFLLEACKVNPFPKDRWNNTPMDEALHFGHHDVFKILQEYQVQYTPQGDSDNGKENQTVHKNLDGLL
Assay: GLS Enzyme Potency Assay (Glutamate Oxidase/AmplexRed coupled assay)
Type: biochemical
Settings: 6His tagged GLS protein (amino acids 63-669), recombinant; read-out: Assay a) enz IC50
Quick list: pIC50 per entry.
In plain terms, pIC50 is the concentration in mol/L turned into minus its base-10 logarithm.

Some molecules with known pIC50 results, for comparison:
In [3]: df
Out[3]:
                                   molecule                        measurement_target  measured_result
0  CCOC(C(=O)Nc1nnc(N[C@@H]2CCN(c3cccnn3)C2)s1)c1cccc(N2CC(F)(F)C2)c1 (single isomer, unassigned) [Example 30]  GLS1 (Homo sapiens (Human), UniProt O94925)             5.86
1  COc1cc(OC)cc(C(OC)C(=O)Nc2nnc(N[C@@H]3CCN(c4ccc(F)nn4)C3)s2)c1 (stereo partly shown) [Example 26]  GLS1 (Homo sapiens (Human), UniProt O94925)             7.63
2  COc1cc(OC)cc(C(OC)C(=O)Nc2nnc(N[C@@H]3CCN(c4cccnn4)C3)s2)c1 (single isomer, unassigned) [Example 44]  GLS1 (Homo sapiens (Human), UniProt O94925)             7.32
3  CO[C@H](C(=O)Nc1nnc(N[C@@H]2CCN(c3cccnn3)C2)s1)c1cccc(N2CC(F)C2)c1 (single isomer, unassigned) [Example 1(a)]  GLS1 (Homo sapiens (Human), UniProt O94925)             7.69
4  CCOC(C(=O)Nc1nnc(N[C@@H]2CCN(c3cccnn3)C2)s1)c1cccc(N2CC(F)C2)c1 (single isomer, unassigned) [Example 31]  GLS1 (Homo sapiens (Human), UniProt O94925)             7.01

What measured pIC50 goes with COC(C(=O)Nc1nnc(N[C@@H]2CCN(c3ccc(C)nn3)C2)s1)c1cccc(N2CC(F)C2)c1 (single isomer, unassigned) [Example 35] ?
7.11

Tell me the measured pIC50 of COC(C(=O)Nc1nnc(N[C@@H]2CCN(c3ccc(C)nn3)C2)s1)c1cccc(N2CC(F)(F)C2)c1 (stereo partly shown) [Example 39] , please.
6.89

Entry under review: COC(C(=O)Nc1nnc(N[C@@H]2CCN(c3nccnn3)C2)s1)c1cccc(C2COC2)c1 (single isomer, unassigned) [Example 24] . Reported pIC50?
7.28

Look up pIC50: COCC(C(=O)Nc1nnc(N[C@@H]2CCN(c3ccc(C)nn3)C2)s1)c1ccccc1 (single isomer, unassigned) [Example 45(a)]
5.80

Name the reported pIC50 value associated with the molecule COc1cc(OC)cc(C(OC)C(=O)Nc2nnc(N[C@@H]3CCN(c4cccnn4)C3)s2)c1 (single isomer, unassigned) [Example 43]
7.70
